FYI, the data here is from FireProtDB (doi:10.1021/bi00250a042).

B1: Subtilisin-chymotrypsin inhibitor-2A, P01053 (parent)
chain: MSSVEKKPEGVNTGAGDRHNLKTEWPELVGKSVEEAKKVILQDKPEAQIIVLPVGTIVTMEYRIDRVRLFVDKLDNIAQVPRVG

Variants of: B1
Settings: Hordeum vulgare; pH 6.3; 25 °C; GdnHCl; Fluorescence; MES 450 mM; reversible: yes; structure 2CI2; whole UniProt chain shown
measuredEndpoint: ddG of mutation (higher = less stable) (kcal/mol)
Give just the number in kcal/mol; leave the unit off.

1. T59D :: 0.04

stdin: Form field: reported ddG of mutation (higher = less stable) of T59A E61A
stdout: 0.67

stdin: // next record "E61A"
stdout: 1.06

stdin: // next record "T59A"
stdout: 0.68
